Biological target: hGLP-1R (Homo sapiens, UniProt P43220)
Sequence (P43220 24-463): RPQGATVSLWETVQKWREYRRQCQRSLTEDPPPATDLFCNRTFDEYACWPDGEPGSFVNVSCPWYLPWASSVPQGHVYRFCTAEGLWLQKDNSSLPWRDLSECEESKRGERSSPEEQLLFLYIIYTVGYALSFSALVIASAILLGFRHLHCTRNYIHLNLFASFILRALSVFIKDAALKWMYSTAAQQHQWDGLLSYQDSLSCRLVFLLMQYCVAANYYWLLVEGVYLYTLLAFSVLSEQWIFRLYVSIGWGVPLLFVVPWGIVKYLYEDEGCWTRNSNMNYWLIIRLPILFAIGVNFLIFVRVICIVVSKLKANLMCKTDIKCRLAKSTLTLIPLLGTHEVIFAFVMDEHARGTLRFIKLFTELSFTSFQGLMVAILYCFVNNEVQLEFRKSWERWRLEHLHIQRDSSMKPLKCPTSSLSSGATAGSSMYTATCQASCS
Assay: cell-based or functional assay
Endpoint Label: Relative cAMP EC50 (nM)
One number for each entry, in nM.

YXQGTXTSDXXIXLDXKAQXEFIEXLIEGGPSSGAPPPESE (non-natural residues, acylated Lys, C-terminal amide; synthetic construct; SITE 2: note = 2-Aminoisobutyric Acid; SITE 6: note = alpha-methyl-2-fluoro-L-phenylalanine; SITE 10: note = 3-(4-Pyridyl)-L-alanine; SITE 11: note = alpha-methyl-L-serine; SITE 13: note = alpha-methyl-leucine; SITE 16: note = L-ornithine; SITE 17: note = Lysine is chemically mo) [Example 1146] | 0.281
YXQGTXTSDXSILLDKKAQXAFIEYLLEGGPSSGAPPPS (synthetic construct; SITE 2: note = 2-Aminoisobutyric Acid; SITE 6: note = alpha-methyl-L-phenylalanine; SITE 10: note = 3-(4-Pyridyl)-L-alanine; SITE 17: note = Lysine is chemically modified through conjugation of the epsilon-amino group of the Lysine side chain with (2-[2-(2-Amino-ethoxy)-ethoxy]-) [Example 418] | 0.264

I need Relative cAMP EC50 for every entry listed below, if you could help.
1. YXQGTXTSDXSIXLDXKAQXXFIEXLIEGGPSSGEPPPEGT (synthetic construct; SITE 2: note = 2-Aminoisobutyric Acid; SITE 6: note = alpha-methyl-2-fluoro-L-phenylalanine; SITE 10: note = 3-(4-Pyridyl)-L-alanine; SITE 13: note = alpha-methyl-leucine; SITE 16: note = L-ornithine; SITE 17: note = Lysine is chemically modified through conjugation of the epsil) [Example 505]
2. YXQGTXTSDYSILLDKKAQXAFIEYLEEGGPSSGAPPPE (not fully specified; synthetic construct; SITE 2: note = 2-Aminoisobutyric Acid; SITE 6: note = alpha-methyl-2-fluoro-L-phenylalanine; SITE 17: note = Lysine is chemically modified through conjugation of the epsilon-amino group of the Lysine side chain with (2-[2-(2-Amino-ethoxy)-ethoxy]-acetyl)-(gamma-Glu)-CO-(CH2) 16-) [Example 388]

[0.205, 0.373]
